# tested_on: T1, ferroportin endogenously expressed on T47D human breast carcinoma cells (human, UniProt Q9NP59 1-571)
# T1 sequence (looked up): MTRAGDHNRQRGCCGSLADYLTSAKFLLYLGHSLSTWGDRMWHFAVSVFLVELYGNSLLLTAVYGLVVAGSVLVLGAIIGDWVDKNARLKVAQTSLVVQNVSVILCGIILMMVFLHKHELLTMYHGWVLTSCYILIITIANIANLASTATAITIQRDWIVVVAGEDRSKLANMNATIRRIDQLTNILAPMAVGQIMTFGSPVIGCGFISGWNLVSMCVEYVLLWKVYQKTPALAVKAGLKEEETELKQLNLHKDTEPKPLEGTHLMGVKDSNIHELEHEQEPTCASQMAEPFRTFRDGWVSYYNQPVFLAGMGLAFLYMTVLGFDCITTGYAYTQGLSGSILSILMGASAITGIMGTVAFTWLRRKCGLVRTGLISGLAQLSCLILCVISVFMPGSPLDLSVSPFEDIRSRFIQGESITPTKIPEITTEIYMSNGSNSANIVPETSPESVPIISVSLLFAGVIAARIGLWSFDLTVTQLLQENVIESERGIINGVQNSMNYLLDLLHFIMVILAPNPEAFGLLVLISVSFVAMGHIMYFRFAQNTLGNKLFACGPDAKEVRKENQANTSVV
# test_summary: cell-based or functional assay
Positions of bridges follow the written chain, without caps; N, C: chain ends. Non-standard residues stand in square brackets, D forms with d. Groups on a side chain read outwards from the residue. *: point of attachment. PEG12 = NCCOCCOCCOCCOCCOCCOCCOCCOCCOCCOCCOCCOCCC(=O)O; Dip = N[C@H](C(=O)O)C(c1ccccc1)c1ccccc1; Palmitoyl = CCCCCCCCCCCCCCCC(=O)*; β3hF = N[C@H](CC(=O)O)Cc1ccccc1; Isovaleryl = CC(C)CC(=O)*
value_kind: IC50: T47D Internalization MSA (nM)

binder	value_units	assay_value
XETHXPCIXXXXC (Isovaleric Acid-E-T-H-[Dpa]-P-[Cys]-I-[(D)Lys(2Peg11′_OMe)]-[bhPhe]-[Lys(Ahx_Palm)]-[(D)Lys(2Peg11′_OMe)]-[Cys]-NH2) [Compound 19]	nM	2.56
XXTHXPCIXXXC (Isovaleric Acid-[Glu_OMe]-T-H-[Dpa]-P-C-I-[Lys(1PEG2_1PEG2_Dap_C18_Diacid)]-[bhPhe]-[(D)Lys]-C-NH2) [Compound 279]	nM	15.4

[P] Isovaleryl-ETH[Dip]PCIK(PEG40KB)[β3hF]K([PEG12-Palmitoyl])RC-NH2 (disulfide 6-12 (inferred)) [Compound 296]
[Q] XETXXPCIXXXC (Isovaleric Acid-E-T-[His_1Me]-[Dpa]-P-C-I-[Lys(PEG12_Palm)]-[bhPhe]-[(D)Lys]-C-NH2) [Compound 202]
[R] XETHXPCIXXXC (Isovaleric Acid-E-T-H-[(4F)Phe]-P-[Cys]-I-[Lys(2Peg11′_Palm)]-[bhPhe]-[(D)Lys]-[Cys]-NH2) [Compound 53]
Req: Sort by IC50: T47D Internalization MSA, descending. Give the order by naming the labels one after another as requested.
Resp: P, Q, R
